System: VEGF-121 (Homo sapiens), P15692-9
Sequence: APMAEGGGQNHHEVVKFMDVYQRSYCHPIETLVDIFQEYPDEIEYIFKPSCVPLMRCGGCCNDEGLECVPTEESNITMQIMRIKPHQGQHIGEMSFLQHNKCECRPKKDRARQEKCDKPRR
protocol: filter
assayConditions: VEGF-5Heg-PDGF; NapdU, 2'-OMe
reportedMetric: Kd
Quick note: unit goes after the number.

query: For the sequence CCGTTCAAGTGCTTGTAGGATTTAAATGGCGACAGCATGTATGCACATCT [5169-4_94] , what Kd is on record?
result: 0.066 nM

###

Tested on: VEGF-121 (Homo sapiens), P15692-9
Sequence: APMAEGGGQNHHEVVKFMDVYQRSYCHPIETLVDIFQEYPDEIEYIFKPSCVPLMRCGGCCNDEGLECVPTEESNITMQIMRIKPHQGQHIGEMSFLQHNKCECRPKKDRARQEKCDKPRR
protocol: filter
assayConditions: P=Nap-dU; C3 spacer at 43
reportedMetric: pKd
Note on units: pKd is unitless, being -log10 of a concentration expressed in mol/L.

query: For the sequence CCCTCCATCAGCCGTTCAAGTGCTTGTAGGATTTAAATGGAATGGAGGA [4867-15_66] , what pKd is on record?
result: 9.96
